The following compounds are shown together with reported Herbicidal activity with respect to [%] ECHCG values.
System: ECHCG: Echinochloa crus-galli
Test details: Pre-emergence herbicidal effect
Format: in vivo
Experimental parameters: application rate 320 g/ha, scored visually after 3 weeks, 100% = plants have died, 0% = like control plants
Measured endpoint: Herbicidal activity with respect to [%] ECHCG (%)

Compound	Units	Data value
Nc1nc(N[C@@H]2CCCc3ccccc32)nnc1Cl	%	100
Nc1nc(N[C@@H]2CCCc3ccccc32)nnc1C(F)(F)F	%	100
N#Cc1nnc(N[C@@H]2CCc3ccccc32)nc1N	%	80
CCOC(=O)c1nnc(N[C@H]2c3cc(C)ccc3C[C@@H]2C)nc1N	%	100
Cc1ccc2c(c1)[C@H](Nc1nnc(C(F)(F)F)c(N)n1)CC2 [Example 1.31]	%	100
CNC(=O)c1nnc(N[C@@H]2CCc3ccc(C)cc32)nc1N	%	100
Nc1nc(N[C@@H]2CCc3ccccc32)nnc1Cl	%	80
N#Cc1nnc(NC2CCOc3ccc(F)cc32)nc1N (racemic)	%	100
Nc1nc(N[C@@H]2CCc3ccccc32)nnc1C(F)(F)F	%	100

* * *

The following molecules are shown together with reported Herbicidal activity with respect to [%] ALOMY values.
Tested on: ALOMY: Alopecurus myosuroides
Test details: Pre-emergence herbicidal effect
Assay type: in vivo
Experimental parameters: application rate 320 g/ha, scored visually after 3 weeks, 100% = plants have died, 0% = like control plants
Measured endpoint: Herbicidal activity with respect to [%] ALOMY (%)

Molecule	Data value
CCOC(=O)c1nnc(N[C@@H]2CCc3ccc(C)cc32)nc1N	80
Cc1ccc2c(c1)[C@H](Nc1nnc(S(C)(=O)=O)c(N)n1)CC2	100
Nc1nc(N[C@@H]2CCCc3ccccc32)nnc1Cl	100
Nc1nc(NC2CCCc3cc(F)ccc32)nnc1C(F)(F)F (racemic)	90
Cc1ccc2c(c1)[C@H](Nc1nnc(S(C)(=O)=O)c(N)n1)[C@@H](C)C2	100
Cc1ccc2c(c1)[C@H](Nc1nnc(C(=O)NC(C)C)c(N)n1)[C@@H](C)C2	80
Cc1ccc2c(c1)[C@H](Nc1nnc(C#N)c(N)n1)[C@@H](C)C2	100
Cc1ccc2c(c1)[C@H](Nc1nnc([S+](C)[O-])c(N)n1)CC2 (some centres unmarked)	100

* * *

The following compounds are shown together with reported Herbicidal activity with respect to [%] ALOMY values.
Tested on: ALOMY: Alopecurus myosuroides
Test details: Pre-emergence herbicidal effect
Type: in vivo
Experimental parameters: application rate 320 g/ha, scored visually after 3 weeks, 100% = plants have died, 0% = like control plants
Measured endpoint: Herbicidal activity with respect to [%] ALOMY (%)

Compound	Data value
Cc1ccc2c(c1)[C@H](Nc1nnc(C(=O)N(C)C)c(N)n1)CC2 [Example 1.77]	100
Cc1ccc2c(c1)[C@H](Nc1nnc(S(C)(=O)=O)c(N)n1)CCC2 [Example 1.68]	100
Nc1nc(NC2CCOc3ccccc32)nnc1C(F)(F)F (stereo not drawn) [Example 1.47]	80
Cc1ccc2c(c1)[C@H](Nc1nnc(C(F)(F)F)c(N)n1)CC2 [Example 1.67]	100
CS(=O)(=O)c1nnc(N[C@@H]2CCCc3ccccc32)nc1N [Example 1.66]	80
CC(=O)c1nnc(N[C@H]2c3cc(C)ccc3C[C@@H]2C)nc1N [Example 1.26]	100
Cc1ccc2c(c1)[C@H](Nc1nnc(C#N)c(N)n1)CC2 [Example 1.70]	100
Cc1ccc2c(c1)[C@H](Nc1nnc([S+](C)[O-])c(N)n1)CCC2 (stereo partly drawn) [Example 1.69]	90
Cc1ccc2c(c1)[C@H](Nc1nnc(C(=O)N(C)C)c(N)n1)[C@@H](C)C2 [Example 1.40]	100
CC(=O)c1nnc(N[C@@H]2CCc3ccc(C)cc32)nc1N [Example 1.72]	100
Cc1ccc2c(c1)[C@H](Nc1nnc(Cl)c(N)n1)[C@@H](C)C2 [Example 1.3]	100
Cc1ccc2c(c1)[C@H](Nc1nnc(C(F)(F)F)c(N)n1)[C@@H](C)C2 [Example 1.23]	100
CCOC(=O)c1nnc(N[C@H]2c3cc(C)ccc3C[C@@H]2C)nc1N [Example 1.21]	90
Cc1ccc2c(c1)[C@H](Nc1nnc(C(F)(F)F)c(N)n1)CCC2 [Example 1.52]	100
Cc1ccc2c(c1)[C@H](Nc1nnc([S+](C)[O-])c(N)n1)[C@@H](C)C2 (stereo partly drawn) [Example 1.44]	100
Cc1ccc2c(c1)[C@H](Nc1nnc(C(N)=O)c(N)n1)CC2 [Example 1.78]	100
Nc1nc(N[C@@H]2CCc3ccccc32)nnc1C(F)(F)F [Example 1.24]	100
N#Cc1nnc(N[C@@H]2CCCc3ccccc32)nc1N [Example 1.37]	100

* * *

Tested on: STEME: Stellaria media
Test details: Post-emergence herbicidal effect
Format: in vivo
Experimental parameters: application rate 320 g/ha, treated at one-leaf stage, assessed visually after about 3 weeks, 100% = plants have died
Measured endpoint: Herbicidal activity with respect to [%] STEME (%)

Compound	Assay system	Units	Data value
Cc1ccc2c(c1)[C@H](Nc1nnc(C(=O)N(C)C)c(N)n1)CC2	STEME: Stellaria media	%	100
Cc1ccc2c(c1)[C@H](Nc1nnc(C(=O)O)c(N)n1)CC2	STEME: Stellaria media	%	100
CCOC(=O)c1nnc(N[C@@H]2CCCc3ccccc32)nc1N	STEME: Stellaria media	%	80
CC(=O)c1nnc(N[C@@H]2CCCc3ccccc32)nc1N	STEME: Stellaria media	%	80
Cc1ccc2c(c1)[C@H](Nc1nnc(C#N)c(N)n1)CC2	STEME: Stellaria media	%	100
CS(=O)(=O)c1nnc(N[C@@H]2CCCc3ccccc32)nc1N	STEME: Stellaria media	%	100
Nc1nc(NC2COc3ccccc32)nnc1C(F)(F)F (racemic)	STEME: Stellaria media	%	100
